Attribution: patent US6344477B1

- target: EP4 Receptors in Chinese Hamster Ovary Cells (Cricetulus griseus, UniProt A0A061ILF4)
- Construct: Chinese hamster ovary cells (containing EP4 receptors); endogenous in cells; host or cells: Chinese hamster ovary cells
- Sequence (A0A061ILF4 1-488): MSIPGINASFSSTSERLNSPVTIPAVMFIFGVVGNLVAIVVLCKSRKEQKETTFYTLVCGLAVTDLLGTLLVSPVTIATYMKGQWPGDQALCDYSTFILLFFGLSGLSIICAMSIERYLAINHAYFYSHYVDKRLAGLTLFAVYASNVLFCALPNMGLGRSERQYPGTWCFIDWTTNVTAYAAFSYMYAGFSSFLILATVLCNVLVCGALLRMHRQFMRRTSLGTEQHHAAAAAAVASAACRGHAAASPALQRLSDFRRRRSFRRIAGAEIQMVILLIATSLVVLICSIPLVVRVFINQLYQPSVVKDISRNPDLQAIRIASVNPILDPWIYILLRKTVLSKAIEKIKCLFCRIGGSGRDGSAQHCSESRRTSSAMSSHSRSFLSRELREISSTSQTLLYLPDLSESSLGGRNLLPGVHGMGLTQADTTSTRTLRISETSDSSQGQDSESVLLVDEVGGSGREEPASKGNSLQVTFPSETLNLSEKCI
- test: cAMP production (radioimmunoassay) via EP4 receptors in Chinese hamster ovary cells
- Type: cell-based
- stated_conditions: 15-60 min at 23° C., read-out: Potency (EC50, nM) at EP4 Receptors in Chinese Hamster Ovary Cells
value_type: EC50 (nM)

(a) CCCCC(C)(C)[C@H](O)/C=C/[C@H]1[C@H](O)CC(=O)[C@@H]1C/C=C\CCCC(=O)O
(b) CCCCC(C)(C)[C@H](O)/C=C/[C@H]1CCC(=O)[C@@H]1C/C=C\CCCC(=O)O
Q: Looking at a and b , which one comes out lower in EC50 terms? Kindly state the label of the option you pick.
A: a
